Where do these numbers come from? They come from PubChem BioAssay AID1919017.

Form field: viability, T/C (one value per entry).
system: SW1271 complex spheroids with HUVEC/MSC, growth, % test/control; test: Anticancer human tumor SW1271 cell line growth inhibition [AhR]; conditions: second compound 0.316 µM; first compound 1 µM; hits give low values;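 also: spheroids exposed to agents for 7 days before readout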
measurement name: viability, T/C (%)

# molecule, endpoint value
measured = [
    ("COc1cc(C2c3cc4c(cc3C(OC3OC5COC(C)OC5C(O)C3O)C3COC(=O)C23)OCO4)cc(OC)c1O (stereo unspecified) + Cc1ccccc1N=Nc1ccc(NC(=O)c2ccnn2C)c(C)c1", 46.1),
    ("CC1COCCN1c1cc(C2(S(C)(=N)=O)CC2)nc(-c2ccnc3[nH]ccc23)n1 (stereo unspecified) + Cc1ccccc1N=Nc1ccc(NC(=O)c2ccnn2C)c(C)c1", 106),
    ("CC1COCCN1c1cc(-c2ccnn2C)c2ccnc(-c3ccn[nH]3)c2n1 (stereo unspecified) + Cc1ccccc1N=Nc1ccc(NC(=O)c2ccnn2C)c(C)c1", 49.2),
    ("Nc1ncn(C2CC(O)C(CO)O2)c(=O)n1 (stereo unspecified) + Cc1ccccc1N=Nc1ccc(NC(=O)c2ccnn2C)c(C)c1", 59.6),
    ("CC1COCCN1c1cc(-c2ccnn2C)c2ccnc(-c3ccn[nH]3)c2n1 (stereo unspecified) + CC(CO)NC(=O)c1cc(-c2ccc(Cl)cc2)nn(-c2cnn(C)c2)c1=O", 46.8),
    ("Nc1ccccc1NC(=O)c1ccc(CNC(=O)OCc2cccnc2)cc1 + Cc1ccccc1N=Nc1ccc(NC(=O)c2ccnn2C)c(C)c1", 86),
]

---

test system: SW1271 complex spheroids with HUVEC/MSC, growth, % test/control; assay: Anticancer human tumor SW1271 cell line growth inhibition [AhR]; conditions: second compound 10 µM; first compound 0.0949 µM; hits give low values;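 also: spheroids exposed to agents for 7 days before readout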
Friendly reminder: viability, T/C below 50% is class 1, at or above is class 0.

# compound, category label
rows = [
    ("CCc1c2c(nc3ccc(O)cc13)-c1cc3c(c(=O)n1C2)COC(=O)[C@]3(O)CC + Cc1cncc(-c2nc(NCCc3c[nH]c4ccccc34)c3ncn(C(C)C)c3n2)c1", "class 1"),
    ("CCN(c1cc(-c2ccc(CN3CCOCC3)cc2)cc(C(=O)NCc2c(C)cc(C)[nH]c2=O)c1C)C1CCOCC1 + Cc1cncc(-c2nc(NCCc3c[nH]c4ccccc34)c3ncn(C(C)C)c3n2)c1", "class 1"),
    ("O=C(C=Cn1cnc(-c2cc(C(F)(F)F)cc(C(F)(F)F)c2)n1)NNc1cnccn1 + Cc1ccccc1N=Nc1ccc(NC(=O)c2ccnn2C)c(C)c1", "class 0"),
    ("CCc1c2c(nc3ccc(O)cc13)-c1cc3c(c(=O)n1C2)COC(=O)[C@]3(O)CC + Cc1ccccc1N=Nc1ccc(NC(=O)c2ccnn2C)c(C)c1", "class 1"),
    ("CC(C)CC(NC(=O)C(Cc1ccccc1)NC(=O)c1cnccn1)B(O)O (stereo unspecified) + Cc1cncc(-c2nc(NCCc3c[nH]c4ccccc34)c3ncn(C(C)C)c3n2)c1", "class 1"),
]

---

system: SW1271 complex spheroids with HUVEC/MSC, growth, % test/control; test: Anticancer human tumor SW1271 cell line growth inhibition [AhR]; conditions: second compound 0.1 µM; first compound 3 µM; hits give low values;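 also: spheroids exposed to agents for 7 days before readout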
measurement name: viability, T/C (%)

# molecule, endpoint value
rows = [
    ("CCN(c1cc(-c2ccc(CN3CCOCC3)cc2)cc(C(=O)NCc2c(C)cc(C)[nH]c2=O)c1C)C1CCOCC1 + Cc1ccccc1N=Nc1ccc(NC(=O)c2ccnn2C)c(C)c1", 110),
    ("O=C(C=Cn1cnc(-c2cc(C(F)(F)F)cc(C(F)(F)F)c2)n1)NNc1cnccn1 + CC(CO)NC(=O)c1cc(-c2ccc(Cl)cc2)nn(-c2cnn(C)c2)c1=O", 34.3),
    ("O=C(C=Cn1cnc(-c2cc(C(F)(F)F)cc(C(F)(F)F)c2)n1)NNc1cnccn1 + Cc1ccccc1N=Nc1ccc(NC(=O)c2ccnn2C)c(C)c1", 46.7),
    ("CCN(c1cc(-c2ccc(CN3CCOCC3)cc2)cc(C(=O)NCc2c(C)cc(C)[nH]c2=O)c1C)C1CCOCC1 + Cc1cncc(-c2nc(NCCc3c[nH]c4ccccc34)c3ncn(C(C)C)c3n2)c1", 118),
    ("CCN(c1cc(-c2ccc(CN3CCOCC3)cc2)cc(C(=O)NCc2c(C)cc(C)[nH]c2=O)c1C)C1CCOCC1 + CC(CO)NC(=O)c1cc(-c2ccc(Cl)cc2)nn(-c2cnn(C)c2)c1=O", 91.8),
    ("O=C(C=Cn1cnc(-c2cc(C(F)(F)F)cc(C(F)(F)F)c2)n1)NNc1cnccn1 + Cc1cncc(-c2nc(NCCc3c[nH]c4ccccc34)c3ncn(C(C)C)c3n2)c1", 44.6),
]

---

test system: SW1271 complex spheroids with HUVEC/MSC, growth, % test/control; test: Anticancer human tumor SW1271 cell line growth inhibition [AhR]; settings: second compound 10 µM; first compound 0.316 µM; hits give low values;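 also: spheroids exposed to agents for 7 days before readout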
measurement name: viability, T/C (%)

# compound, endpoint value
data = [
    ("COc1cc(C2c3cc4c(cc3C(OC3OC5COC(C)OC5C(O)C3O)C3COC(=O)C23)OCO4)cc(OC)c1O (configuration not stated) + Cc1cncc(-c2nc(NCCc3c[nH]c4ccccc34)c3ncn(C(C)C)c3n2)c1", 41),
    ("COc1ccc([C@@H](O)c2cc(-c3ncnc4cc(N5CCOCC5)ccc34)c(F)cc2Cl)nn1 + Cc1ccccc1N=Nc1ccc(NC(=O)c2ccnn2C)c(C)c1", 77.7),
    ("COc1cc(C2c3cc4c(cc3C(OC3OC5COC(C)OC5C(O)C3O)C3COC(=O)C23)OCO4)cc(OC)c1O (configuration not stated) + Cc1ccccc1N=Nc1ccc(NC(=O)c2ccnn2C)c(C)c1", 54),
    ("CC(C)c1c(-c2ccccc2)nc2c(C#N)c[nH]n2c1=O + Cc1cncc(-c2nc(NCCc3c[nH]c4ccccc34)c3ncn(C(C)C)c3n2)c1", 48),
    ("CC(C)c1c(-c2ccccc2)nc2c(C#N)c[nH]n2c1=O + Cc1ccccc1N=Nc1ccc(NC(=O)c2ccnn2C)c(C)c1", 108),
    ("NS(=O)(=O)OCC1CC(n2ccc3c(NC4CCc5ccccc54)ncnc32)CC1O (configuration not stated) + Cc1ccccc1N=Nc1ccc(NC(=O)c2ccnn2C)c(C)c1", 123),
    ("CC1COCCN1c1cc(-c2ccnn2C)c2ccnc(-c3ccn[nH]3)c2n1 (configuration not stated) + CC(CO)NC(=O)c1cc(-c2ccc(Cl)cc2)nn(-c2cnn(C)c2)c1=O", 47.9),
    ("O=C(C=Cc1cccc(S(=O)(=O)Nc2ccccc2)c1)NO + CC(CO)NC(=O)c1cc(-c2ccc(Cl)cc2)nn(-c2cnn(C)c2)c1=O", 54.4),
    ("COc1cc(C2c3cc4c(cc3C(OC3OC5COC(C)OC5C(O)C3O)C3COC(=O)C23)OCO4)cc(OC)c1O (configuration not stated) + CC(CO)NC(=O)c1cc(-c2ccc(Cl)cc2)nn(-c2cnn(C)c2)c1=O", 50.7),
    ("CC1COCCN1c1cc(C2(S(C)(=N)=O)CC2)nc(-c2ccnc3[nH]ccc23)n1 (configuration not stated) + CC(CO)NC(=O)c1cc(-c2ccc(Cl)cc2)nn(-c2cnn(C)c2)c1=O", 72),
    ("Nc1ncn(C2CC(O)C(CO)O2)c(=O)n1 (configuration not stated) + Cc1ccccc1N=Nc1ccc(NC(=O)c2ccnn2C)c(C)c1", 65),
    ("CC1COCCN1c1cc(C2(S(C)(=N)=O)CC2)nc(-c2ccnc3[nH]ccc23)n1 (configuration not stated) + Cc1ccccc1N=Nc1ccc(NC(=O)c2ccnn2C)c(C)c1", 104),
]

---

Form field: viability, T/C (one value per entry).
system: SW1271 complex spheroids with HUVEC/MSC, growth, % test/control; assay: Anticancer human tumor SW1271 cell line growth inhibition [AhR]; settings: second compound 1 µM; first compound 0.0949 µM; hits give low values;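 also: spheroids exposed to agents for 7 days before readout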

# molecule, viability, T/C / %
measured = [
    ("O=C(C=Cn1cnc(-c2cc(C(F)(F)F)cc(C(F)(F)F)c2)n1)NNc1cnccn1 + CC(CO)NC(=O)c1cc(-c2ccc(Cl)cc2)nn(-c2cnn(C)c2)c1=O", 70.8),
    ("CCc1c2c(nc3ccc(O)cc13)-c1cc3c(c(=O)n1C2)COC(=O)[C@]3(O)CC + CC(CO)NC(=O)c1cc(-c2ccc(Cl)cc2)nn(-c2cnn(C)c2)c1=O", 54),
    ("O=C(C=Cn1cnc(-c2cc(C(F)(F)F)cc(C(F)(F)F)c2)n1)NNc1cnccn1 + Cc1cncc(-c2nc(NCCc3c[nH]c4ccccc34)c3ncn(C(C)C)c3n2)c1", 97.7),
]

---

tested on: SW1271 complex spheroids with HUVEC/MSC, growth, % test/control; assay: Anticancer human tumor SW1271 cell line growth inhibition [AhR]; details: second compound 0.316 µM; first compound 0.0316 µM; hits give low values;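 also: spheroids exposed to agents for 7 days before readout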

# molecule, display unit, viability, T/C
measured = [
    ("CC1(C)CCC(CN2CCN(c3ccc(C(=O)NS(=O)(=O)c4ccc(NCC5CCOCC5)c([N+](=O)[O-])c4)c(Oc4cnc5[nH]ccc5c4)c3)CC2)=C(c2ccc(Cl)cc2)C1 + CC(CO)NC(=O)c1cc(-c2ccc(Cl)cc2)nn(-c2cnn(C)c2)c1=O", "%", 84.4),
    ("COc1ccc([C@@H](O)c2cc(-c3ncnc4cc(N5CCOCC5)ccc34)c(F)cc2Cl)nn1 + Cc1ccccc1N=Nc1ccc(NC(=O)c2ccnn2C)c(C)c1", "%", 82.9),
    ("COc1cccc2c1C(=O)c1c(O)c3c(c(O)c1C2=O)CC(O)(C(=O)CO)CC3OC1CC(N)C(O)C(C)O1 (stereo not given) + CC(CO)NC(=O)c1cc(-c2ccc(Cl)cc2)nn(-c2cnn(C)c2)c1=O", "%", 49.2),
    ("CC[C@@]1(O)C(=O)OCc2c1cc1n(c2=O)Cc2cc3c(CN(C)C)c(O)ccc3nc2-1 + Cc1ccccc1N=Nc1ccc(NC(=O)c2ccnn2C)c(C)c1", "%", 69.2),
    ("CC(C)c1c(-c2ccccc2)nc2c(C#N)c[nH]n2c1=O + Cc1cncc(-c2nc(NCCc3c[nH]c4ccccc34)c3ncn(C(C)C)c3n2)c1", "%", 85.2),
]
